Reference source: the supplement of paper PMC7125110

B1: glmS ribozyme (parent)
chain: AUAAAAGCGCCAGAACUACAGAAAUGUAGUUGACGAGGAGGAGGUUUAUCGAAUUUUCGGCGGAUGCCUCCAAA

- Variants of: B1
- Experimental Protocol: self-cleavage kobs at 2500 uM GlcN6P; higher = faster cleavage; RNA array
- Protocol Conditions: with glucosamine-6-phosphate
Fewer inactive variants are shown than the library holds.
Measured Attribute: self-cleavage kobs at 2500 uM GlcN6P (s⁻¹)
Lab book: enter the figure in s⁻¹, no units written.

Which self-cleavage kobs at 2500 uM GlcN6P value belongs to C16U G43U U45G ?
0.00141

Similarly, C16U G29U A53U ?
0.00254

Similarly, C11U A14C C16A G38U G40A C50G ?
6.83e-05

Similarly, G32U U54G ?
0.000272

Similarly, A52C C68A ?
3.05e-05

Similarly, C50A A53G ?
3.53e-05

Similarly, G40C U55C ?
0.000287

Similarly, G29A G41C ?
2.97e-05

Similarly, U47C C67G C70U ?
0.000129
